The reported numbers originate from ChEMBL document CHEMBL5149996.

STUDY_SYSTEM: Proteasome Macropain subunit MB1 (Homo sapiens)
Sequence (P28074 whole entry): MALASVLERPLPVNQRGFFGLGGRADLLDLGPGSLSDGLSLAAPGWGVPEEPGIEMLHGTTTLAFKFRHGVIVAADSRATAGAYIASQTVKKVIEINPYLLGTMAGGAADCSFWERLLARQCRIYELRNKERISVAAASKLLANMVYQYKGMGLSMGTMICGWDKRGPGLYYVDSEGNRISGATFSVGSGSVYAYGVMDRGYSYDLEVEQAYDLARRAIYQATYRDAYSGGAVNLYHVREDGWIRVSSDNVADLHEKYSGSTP
METHOD: Inhibition of human 20S proteasome beta5 subunit using Suc-LLVY-AMC as substrate preincubated for 2 hrs followed by substrate addition and measured after 1 hr by fluorescence intensity assay
log10 IC50 values for the compounds below.
VALUE_KIND: log10 IC50 (log10 of the value in µM)

[
  {
    "SMILES_ENTRY": "O=C(N[C@@H](Cc1coc2ccccc12)B(O)O)[C@@H]1C[C@H]2CC[C@@H]1O2",
    "log10 IC50": 0.40
  },
  {
    "SMILES_ENTRY": "O=C(N[C@@H](Cc1coc2ccccc12)B(O)O)[C@H]1C[C@@H]2CC[C@H]1O2",
    "log10 IC50": 0.81
  },
  {
    "SMILES_ENTRY": "Cc1cccc2c1OC[C@H]2C[C@H](NC(=O)Cc1ccccc1)B(O)O",
    "log10 IC50": 0.86
  },
  {
    "SMILES_ENTRY": "O=C(Cc1ccccc1)N[C@@H](C[C@@H]1COc2c(Cl)cccc21)B(O)O",
    "log10 IC50": 0.46
  },
  {
    "SMILES_ENTRY": "N#Cc1ccccc1CC(=O)N[C@@H](C[C@@H]1COc2ccccc21)B(O)O",
    "log10 IC50": 0.38
  },
  {
    "SMILES_ENTRY": "O=C(Cc1ccccc1)N[C@@H](Cc1coc2ccccc12)B(O)O",
    "log10 IC50": -0.05
  },
  {
    "SMILES_ENTRY": "O=C(Cc1ccccc1)N[C@@H](Cc1c(Cl)oc2ccccc12)B(O)O",
    "log10 IC50": 1.30
  }
]
